Each record here notes measured pKi.
molecular target: Rat Striatal Nicotinic Acetylcholine Receptors (Rattus norvegicus, UniProt P09483+P12390); assay: [3H]-NIC binding assay, rat striatal membranes; conditions: 3 nM [3H]-NIC, at least 3 independent experiments, read-out: Ki, displacement of [3H]-NIC binding
Sequence (P09483 31-630): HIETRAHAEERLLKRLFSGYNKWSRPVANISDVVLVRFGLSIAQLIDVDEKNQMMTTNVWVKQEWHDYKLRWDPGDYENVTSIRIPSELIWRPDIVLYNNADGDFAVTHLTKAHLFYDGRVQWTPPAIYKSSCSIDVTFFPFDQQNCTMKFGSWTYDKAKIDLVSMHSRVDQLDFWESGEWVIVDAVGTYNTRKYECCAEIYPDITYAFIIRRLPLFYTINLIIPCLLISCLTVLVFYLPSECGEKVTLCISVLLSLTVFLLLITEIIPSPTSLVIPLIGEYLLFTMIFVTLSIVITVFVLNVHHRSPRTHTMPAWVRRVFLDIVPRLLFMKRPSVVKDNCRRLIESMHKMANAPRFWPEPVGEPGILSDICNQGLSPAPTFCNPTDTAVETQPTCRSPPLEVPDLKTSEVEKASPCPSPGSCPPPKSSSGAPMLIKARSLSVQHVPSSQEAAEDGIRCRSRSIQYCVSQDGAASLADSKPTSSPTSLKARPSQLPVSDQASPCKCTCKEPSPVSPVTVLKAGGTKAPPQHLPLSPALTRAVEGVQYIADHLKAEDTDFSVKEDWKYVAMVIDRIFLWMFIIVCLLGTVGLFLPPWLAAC
Sequence (P12390 25-500): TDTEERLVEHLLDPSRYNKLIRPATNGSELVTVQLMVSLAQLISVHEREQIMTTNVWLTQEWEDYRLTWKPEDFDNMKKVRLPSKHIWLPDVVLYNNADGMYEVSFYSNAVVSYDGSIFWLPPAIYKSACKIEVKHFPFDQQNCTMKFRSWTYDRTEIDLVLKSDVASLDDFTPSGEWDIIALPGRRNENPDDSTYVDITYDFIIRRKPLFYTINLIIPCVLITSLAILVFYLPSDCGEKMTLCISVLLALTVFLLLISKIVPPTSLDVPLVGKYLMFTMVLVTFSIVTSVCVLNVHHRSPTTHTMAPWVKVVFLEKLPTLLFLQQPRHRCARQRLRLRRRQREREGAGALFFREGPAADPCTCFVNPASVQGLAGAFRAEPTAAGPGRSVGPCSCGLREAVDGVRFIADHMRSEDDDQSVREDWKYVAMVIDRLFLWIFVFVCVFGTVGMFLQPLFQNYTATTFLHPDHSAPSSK
Counter-ions that a name gives are not always drawn.
Just the number, please; pKi means minus log10 of the concentration in mol/L.

{"compound": "CCOCCOCC[n+]1cccc([C@@H]2CCCN2C)c1 [NONB-3O6O]", "reading": 5.92}
{"compound": "C=CCCCCCC[n+]1cccc([C@@H]2CCCN2C)c1 [NONB-7e]", "reading": 6.35}
{"compound": "CN1CCC[C@H]1c1ccc[n+](CCCCCCC2CCCCC2)c1 [NCyNB-6, hydrobromide salt]", "reading": 5.34}

Query block: Can you look up the measured pKi of CC(C)CCCCCC[n+]1cccc([C@@H]2CCCN2C)c1 [NONB-7M, hydrobromide salt] for me?
Result block: 6.36

Query block: And what about the compound CCCCCCC#CCC[n+]1cccc([C@@H]2CCCN2C)c1 [NDNB-3y] ?
Result block: 6.09

Query block: And what about the compound CCCCC/C=C/CCC[n+]1cccc([C@@H]2CCCN2C)c1 [NDNB-4t] ?
Result block: 6.49

Query block: And what about the compound CC(C)=CCCCCC[n+]1cccc([C@@H]2CCCN2C)c1 [NONB-6e7M, hydrobromide] ?
Result block: 6.35

Query block: And what about the compound CCCCCCCCCC[n+]1cccc([C@@H]2CCCN2C)c1 [NDNI, N-n-decylnicotinium iodide, reference compound] ?
Result block: 7.03

Query block: And what about the compound CCCC/C=C\CC[n+]1cccc([C@@H]2CCCN2C)c1 [NONB-3c, hydrobromide salt] ?
Result block: 7.07
